Recorded values, source patent US20250270200A1.

ASSAY_TARGET: human CTPS1 (Homo sapiens)
Sequence (P17812 whole entry): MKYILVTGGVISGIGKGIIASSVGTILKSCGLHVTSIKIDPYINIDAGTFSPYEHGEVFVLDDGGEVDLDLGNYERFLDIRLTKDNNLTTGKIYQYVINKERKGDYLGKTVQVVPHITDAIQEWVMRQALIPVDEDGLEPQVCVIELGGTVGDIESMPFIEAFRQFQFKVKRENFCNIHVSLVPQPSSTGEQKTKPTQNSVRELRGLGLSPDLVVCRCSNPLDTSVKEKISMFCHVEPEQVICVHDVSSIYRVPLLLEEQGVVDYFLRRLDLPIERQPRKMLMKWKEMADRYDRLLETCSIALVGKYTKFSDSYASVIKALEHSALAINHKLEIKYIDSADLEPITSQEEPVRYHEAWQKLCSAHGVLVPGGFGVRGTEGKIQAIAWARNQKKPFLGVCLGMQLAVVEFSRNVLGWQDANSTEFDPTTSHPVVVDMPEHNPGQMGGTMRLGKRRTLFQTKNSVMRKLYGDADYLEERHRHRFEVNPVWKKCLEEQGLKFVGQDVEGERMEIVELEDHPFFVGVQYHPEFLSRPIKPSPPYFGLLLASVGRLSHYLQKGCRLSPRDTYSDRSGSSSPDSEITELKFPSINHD
ASSAY_PROCEDURE: ADP-Glo assay, human CTPS1 enzyme inhibition
Type: biochemical
EXPERIMENTAL_CONTEXT: wild-type human CTPS1, 25 nM enzyme; ADP-Glo; read-out: ADP-Glo_WT_hCTPS1—25 nM_IC50 (IC50)
pIC50: −log10 of the molar value.
Below: a set of entries, each annotated with reported pIC50.

Record CCOc1cncc(-c2cnc(C(=O)N[C@@H](C[C@H]3COCCN3C)c3cc(NS(=O)(=O)C4CC4)ccn3)s2)n1 has human CTPS1 (Homo sapiens) pIC50 equal to 7.00 to 7.30

More entries:
Record CCOc1cncc(-c2cnc(C(=O)N[C@]3(c4cc(NS(=O)(=O)C5CC5)ccn4)C[C@@H](O)C3)s2)n1 has human CTPS1 (Homo sapiens) pIC50 equal to ≥ 8.30

Record CCOc1cncc(-c2cnc(C(=O)N[C@H](c3cc(NS(=O)(=O)C4CC4)ccn3)[C@H]3CCN(C4CC4)C3)s2)n1 has human CTPS1 (Homo sapiens) pIC50 equal to 7.60 to 8.30

Record CCOc1cncc(-c2cnc(C(=O)N[C@@H](c3cc(NS(=O)(=O)C4CC4)ncn3)[C@H]3CCOC3)s2)n1 has human CTPS1 (Homo sapiens) pIC50 equal to 7.60 to 8.30

---

ASSAY_TARGET: human CTPS1 (Homo sapiens)
ASSAY_PROCEDURE: ADP-Glo assay, human CTPS1 enzyme inhibition
Type: biochemical
EXPERIMENTAL_CONTEXT: wild-type human CTPS1, 25 nM enzyme; ADP-Glo; read-out: ADP-Glo_WT_hCTPS1—25 nM_IC50 (IC50)
Protocol: The enzyme inhibitory activities of the compounds of the invention against the target of interest were determined using the ADP-Glo™ assay (Promega). […] Purified human CTPS1 protein was prepared in 1× assay buffer to the final working protein concentration required for the reaction. […] This mixture was incubated for an appropriate amount of time within the determined linear phase of the reaction at 25 degrees C. under sealed plate conditions with constant agitation at 500 revolutions per minute (rpm). […]
Below: a set of entries, each annotated with reported IC50.

Some molecules with recorded IC50:
Value of measured IC50 for the entry CCOc1cncc(-c2cnc(C(=O)N[C@@H](c3cc(NS(=O)(=O)C4CC4)ccn3)[C@H](C)CN3CCCCC3)s2)n1 (stereo in doubt) : 5 to 25 nM

Value of measured IC50 for the entry CCOc1cncc(-c2cnc(C(=O)N[C@H](c3cc(NS(=O)(=O)C4CC4)ccn3)[C@H]3CC(=O)N(C)C3)s2)n1 : 25 to 50 nM

Value of measured IC50 for the entry CCOc1cncc(-c2cnc(C(=O)N[C@@H](COC)c3nccc(NS(=O)(=O)C4CC4)c3F)s2)n1 (single isomer, unassigned) : 5 to 25 nM

Value of measured IC50 for the entry C[C@@H](CO)[C@@H](NC(=O)c1ncc(-c2cnn3ccc(Cl)cc23)s1)c1cc(NS(=O)(=O)C2CC2)ccn1 : 5 to 25 nM

Value of measured IC50 for the entry O=C(N[C@@H](c1cccc(NS(=O)(=O)C(F)F)c1)C1CCOCC1)c1ncc(-c2cnn3ccc(Cl)cc23)s1 : 5 to 25 nM

Value of measured IC50 for the entry CC(C)(O)[C@H](NC(=O)c1ncc(-c2cnn3ccc(Cl)cc23)s1)c1cc(NS(=O)(=O)C2CC2)ccn1 : 50 to 100 nM

Value of measured IC50 for the entry CCOc1cncc(-c2cnc(C(=O)N[C@@H](CO[C@@H]3CCOC3)c3cc(NS(=O)(=O)C4CC4)ccn3)s2)n1 : 5 to 25 nM

Value of measured IC50 for the entry CCOc1cncc(-c2cnc(C(=O)N[C@]3(c4cc(NS(=O)(=O)C5CC5)ccn4)C[C@H](O)C3)s2)n1 : ≤ 5 nM

More entries:
Value of measured IC50 for the entry CCOc1cncc(-c2cnc(C(=O)N[C@@H](c3cc(NS(=O)(=O)C4CC4)ccn3)[C@H](C)OC)s2)n1 : 5 to 25 nM

Value of measured IC50 for the entry CCOc1cncc(-c2cnc(C(=O)N[C@H](CCN3CCC(F)CC3)c3cc(NS(=O)(=O)C4CC4)ccn3)s2)n1 (single isomer, unassigned) : 5 to 25 nM

Value of measured IC50 for the entry O=C(N[C@@H](CN1CCCC1)c1cc(NS(=O)(=O)C2CC2)ccn1)c1ncc(-c2cnn3ccc(Cl)cc23)s1 : 50 to 100 nM

Value of measured IC50 for the entry CCOc1cncc(-c2cnc(C(=O)N[C@H](CN3CCCCC3)c3cccc(NS(=O)(=O)C(F)F)c3)s2)n1 : 25 to 50 nM

Value of measured IC50 for the entry CCOc1cncc(-c2cnc(C(=O)N[C@H](CN3C[C@H]4COC[C@H]4C3)c3cc(NS(=O)(=O)C4CC4)ccn3)s2)n1 (single isomer, unassigned) : 5 to 25 nM

Value of measured IC50 for the entry CCOc1cncc(-c2cnc(C(=O)N[C@@H](c3cc(NS(=O)(=O)C4CC4)ncn3)C3CCOCC3)s2)n1 (single isomer, unassigned) : 5 to 25 nM

Value of measured IC50 for the entry CCOc1cncc(-c2cnc(C(=O)N[C@H](Cn3ccnn3)c3cc(NS(=O)(=O)C4CC4)ccn3)s2)n1 : 5 to 25 nM
